- system under test: EGLN2
- measurement description: cell-based or functional assay
Where no end group is shown, it is not given here.
Label T when Activity (%)* is at or above 60%; anything below gets F.

Record DTDLDLEMLEPYIPMDDDFQ (not fully specified; printed as DTDLDLEMLEpYIPMDDDFQ) [DTDLDLEMLEpYIPMDDDFQ] ; criterion: Activity (%)* no lower than 60%. Met? F

Try this binder too: DTDLDAEALAPYIPADDDFQ [DTDLDAEALApYIPADDDFQ] F

Same again, this time with DTDLDLEAVAPYIPADDDFQ (not fully specified; printed as DTDLDLEAVApYIPADDDFQ) [DTDLDLEAVApYIPADDDFQ] T

Another: DTDLDLEMLRPYIPMDDDFQ (not fully specified; printed as DTDLDLEMLRpYIPMDDDFQ) [DTDLDLEMLRpYIPMDDDFQ] F

Same question, DTDLDLEAHAPYIPADDDFQ [DTDLDLEAHApYIPADDDFQ] this time F

// same read-out, input: DTDLDLEAMAPYIPADDDFQ [DTDLDLEAMApYIPADDDFQ] F

Taken from patent US20080113383A1.
